Values were extracted from ChEMBL document CHEMBL6109114.

- Method summary: Cmax in mouse at 10 mg/kg, po
- Format: ADME, organism-based
- Measurement setup: in vivo
Measurement type: Cmax (ng/mL)
Just the number in ng/mL, nothing appended.

Supply measured Cmax of Cc1cc(=O)n(-c2cc(Cl)ccc2F)nc1C(=O)Nc1ccc(Oc2ccnc(NC(=O)N3CC(O)C3)c2)c(F)c1 in your reply.
306

* * *

- Method summary: Metabolic stability in Sprague-Dawley rat liver microsomes assessed as half life at 1 uM measured up to 60 mins in presence of NADPH regenerating system by LC-MS/MS analysis
- Assay type: ADME, Microsome
Measurement type: half-life at 1 µM
Don't forget the unit after the value.

Supply measured half-life at 1 µM of Cc1cc(=O)n(-c2cc(Cl)ccc2F)nc1C(=O)Nc1ccc(Oc2ccnc(NC(=O)N3CC(O)C3)c2)c(F)c1 in your reply.
1.95 h

* * *

- Method summary: MRT (0 to t) in mouse at 10 mg/kg, po
- Type: ADME, organism-based
- Measurement setup: in vivo
Measurement type: MRT last (h)
Just the number in h, nothing appended.

Supply measured MRT last of Cc1cc(=O)n(-c2cc(Cl)ccc2F)nc1C(=O)Nc1ccc(Oc2ccnc(NC(=O)N3CC(O)C3)c2)c(F)c1 in your reply.
3.37

* * *

- Method summary: Metabolic stability in human liver microsomes assessed as half life at 1 uM measured up to 60 mins in presence of NADPH regenerating system by LC-MS/MS analysis
- Type: ADME, Microsome
Measurement type: half-life at 1 µM (min)
Just the number in min, nothing appended.

Supply measured half-life at 1 µM of Cc1cc(=O)n(-c2cc(Cl)ccc2F)nc1C(=O)Nc1ccc(Oc2ccnc(NC(=O)N3CC(O)C3)c2)c(F)c1 in your reply.
109

* * *

- Method summary: Metabolic stability in human liver microsomes assessed as parent compound remaining at 1 uM measured after 60 mins in presence of NADPH regenerating system by LC-MS/MS analysis
- Format: ADME, Microsome
- Measurement setup: read-out: Stability
Measurement type: remaining at 1 h, 1 µM (%)
Just the number in %, nothing appended.

Supply measured remaining at 1 h, 1 µM of Cc1cc(=O)n(-c2cc(Cl)ccc2F)nc1C(=O)Nc1ccc(Oc2ccnc(NC(=O)N3CC(O)C3)c2)c(F)c1 in your reply.
66.3

* * *

- Test system: BaF3
- Method summary: Antiproliferative activity against mouse BaF3 cells harbouring FLT3-ITD assessed as inhibition of cell growth measured after 3 days by celltiter-glo luminescent cell viability assay
- Format: functional, cell-based
- Measurement setup: BaF3, 72 h
Rule: IC50 below 1000 nM gives YES. Equal to or above 1000 nM gives NO.

* Cc1cc(=O)n(-c2ccc(F)c(Cl)c2)nc1C(=O)Nc1ccc(Oc2ccnc(NC(=O)N3CC(O)C3)c2)c(F)c1 | YES
* Cc1cc(=O)n(-c2cc(F)cc(Cl)c2)nc1C(=O)Nc1ccc(Oc2ccnc(NC(=O)N3CC(O)C3)c2)c(F)c1 | YES
* Cc1cc(=O)n(-c2cc(Cl)c(F)c(Cl)c2)nc1C(=O)Nc1ccc(Oc2ccnc(NC(=O)N3CC(O)C3)c2)c(F)c1 | YES
* Cc1cc(=O)n(-c2ccccc2F)nc1C(=O)Nc1ccc(Oc2ccnc(NC(=O)N3CC(O)C3)c2)c(F)c1 | YES
* Cc1cc(=O)n(-c2ccc(I)cc2)nc1C(=O)Nc1ccc(Oc2ccnc(NC(=O)N3CC(O)C3)c2)c(F)c1 | NO
* CCc1nc(C(N)=O)c(Nc2ccc(N3CCC(N4CCN(C)CC4)CC3)c(OC)c2)nc1NC1CCOCC1 [GILTERITINIB] | YES
* Cc1cc(=O)n(-c2cc(Cl)ccc2F)nc1C(=O)Nc1ccc(Oc2ccnc(NC(=O)NC3CCOCC3)c2)c(F)c1 | NO
* Cc1cc(=O)n(-c2cccc(Cl)c2)nc1C(=O)Nc1ccc(Oc2ccnc(NC(=O)N3CC(O)C3)c2)c(F)c1 | YES
* Cc1cc(=O)n(-c2ccc(Br)cc2)nc1C(=O)Nc1ccc(Oc2ccnc(NC(=O)N3CC(O)C3)c2)c(F)c1 | NO
* Cc1cc(=O)n(-c2ccc(C#N)cc2)nc1C(=O)Nc1ccc(Oc2ccnc(NC(=O)N3CC(O)C3)c2)c(F)c1 | NO

IC50 strictly < 1000 nM for this compound? Cc1cc(=O)n(-c2cc(Cl)ccc2F)nc1C(=O)Nc1ccc(Oc2ccnc(NC(=O)N3CCC(O)C3)c2)c(F)c1 (stereo unspecified)
YES

IC50 strictly < 1000 nM for this compound? Cc1cc(=O)n(-c2ccc(F)c(F)c2)nc1C(=O)Nc1ccc(Oc2ccnc(NC(=O)N3CC(O)C3)c2)c(F)c1
YES

IC50 strictly < 1000 nM for this compound? Cc1cc(=O)n(-c2cc(F)ccc2Cl)nc1C(=O)Nc1ccc(Oc2ccnc(NC(=O)N3CC(O)C3)c2)c(F)c1
NO

IC50 strictly < 1000 nM for this compound? Cc1ccc(-n2nc(C(=O)Nc3ccc(Oc4ccnc(NC(=O)N5CC(O)C5)c4)c(F)c3)c(C)cc2=O)cc1
NO

IC50 strictly < 1000 nM for this compound? Cc1cc(=O)n(-c2cc(Cl)ccc2F)nc1C(=O)Nc1ccc(Oc2ccnc(NC(=O)N3CCC(C)CC3)c2)c(F)c1
NO

IC50 strictly < 1000 nM for this compound? COc1cc(F)ccc1-n1nc(C(=O)Nc2ccc(Oc3ccnc(NC(=O)N4CC(O)C4)c3)c(F)c2)c(C)cc1=O
YES

* * *

- System: MOLM-14
- Method summary: Antiproliferative activity against human MOLM-14 cells harbouring FLT3-ITD assessed as inhibition of cell growth measured after 3 days by celltiter-glo luminescent cell viability assay
- Format: functional, cell-based
- Measurement setup: MOLM-14, 72 h
Measurement type: IC50 (nM)
Just the number in nM, nothing appended.

Supply measured IC50 of Cc1cc(=O)n(-c2cc(Cl)ccc2F)nc1C(=O)Nc1ccc(Oc2ccnc(NC(=O)N3CC(O)C3)c2)c(F)c1 in your reply.
510

* * *

- Method summary: Metabolic stability in Beagle dog liver microsomes assessed as parent compound remaining at 1 uM measured after 60 mins by LC-MS/MS analysis
- Assay type: ADME, Canis lupus familiaris, Microsome
- Measurement setup: read-out: Stability
Measurement type: remaining at 1 h, 1 µM
Don't forget the unit after the value.

Supply measured remaining at 1 h, 1 µM of Cc1cc(=O)n(-c2cc(Cl)ccc2F)nc1C(=O)Nc1ccc(Oc2ccnc(NC(=O)N3CC(O)C3)c2)c(F)c1 in your reply.
103%

* * *

- Target entity: Vascular endothelial growth factor receptor 1 (Homo sapiens, UniProt P17948)
- Sequence (P17948 whole entry): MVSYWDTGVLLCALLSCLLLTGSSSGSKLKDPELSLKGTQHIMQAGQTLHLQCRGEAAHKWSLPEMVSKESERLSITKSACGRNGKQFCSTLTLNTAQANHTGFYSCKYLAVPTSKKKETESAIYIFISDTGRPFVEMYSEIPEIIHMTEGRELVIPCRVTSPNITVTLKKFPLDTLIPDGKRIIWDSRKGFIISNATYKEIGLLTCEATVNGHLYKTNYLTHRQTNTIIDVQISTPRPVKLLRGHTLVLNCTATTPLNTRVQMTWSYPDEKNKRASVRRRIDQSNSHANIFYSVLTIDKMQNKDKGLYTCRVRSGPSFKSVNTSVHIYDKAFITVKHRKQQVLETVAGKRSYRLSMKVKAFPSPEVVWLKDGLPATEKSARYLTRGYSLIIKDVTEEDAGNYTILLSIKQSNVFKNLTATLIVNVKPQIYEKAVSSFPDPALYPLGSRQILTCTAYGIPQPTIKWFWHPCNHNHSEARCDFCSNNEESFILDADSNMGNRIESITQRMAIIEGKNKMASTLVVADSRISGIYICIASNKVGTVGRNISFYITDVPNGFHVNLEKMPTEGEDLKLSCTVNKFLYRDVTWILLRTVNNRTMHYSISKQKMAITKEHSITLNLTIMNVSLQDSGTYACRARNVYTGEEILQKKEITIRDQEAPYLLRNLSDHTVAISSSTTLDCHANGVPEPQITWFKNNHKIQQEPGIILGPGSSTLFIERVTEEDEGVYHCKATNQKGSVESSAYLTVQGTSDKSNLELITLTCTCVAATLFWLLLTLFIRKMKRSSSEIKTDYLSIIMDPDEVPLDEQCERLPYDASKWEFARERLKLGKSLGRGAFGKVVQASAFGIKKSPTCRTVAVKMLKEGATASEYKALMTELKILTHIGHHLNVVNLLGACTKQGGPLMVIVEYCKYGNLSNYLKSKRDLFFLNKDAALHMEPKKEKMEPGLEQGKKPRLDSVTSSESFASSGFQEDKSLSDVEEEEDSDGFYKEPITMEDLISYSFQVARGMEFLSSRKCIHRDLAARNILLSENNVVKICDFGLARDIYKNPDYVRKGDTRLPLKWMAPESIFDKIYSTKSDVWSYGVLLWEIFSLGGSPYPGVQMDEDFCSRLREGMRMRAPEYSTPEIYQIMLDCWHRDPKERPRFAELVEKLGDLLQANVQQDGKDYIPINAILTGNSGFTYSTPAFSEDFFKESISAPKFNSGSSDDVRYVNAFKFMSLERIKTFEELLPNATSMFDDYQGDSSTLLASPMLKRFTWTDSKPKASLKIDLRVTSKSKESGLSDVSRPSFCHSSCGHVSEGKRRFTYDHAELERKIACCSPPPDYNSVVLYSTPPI
Measurement type: IC50 (µM)
Just the number in µM, nothing appended.

Output reported IC50 of the compound Cc1cc(=O)n(-c2cc(Cl)ccc2F)nc1C(=O)Nc1ccc(Oc2ccnc(NC(=O)N3CC(O)C3)c2)c(F)c1 on Vascular endothelial growth factor receptor 1 (Homo sapiens, UniProt P17948).
0.348

* * *

- Method summary: Metabolic stability in human liver microsomes assessed as parent compound remaining at 1 uM measured after 60 mins by LC-MS/MS analysis
- Assay type: ADME, Microsome
- Measurement setup: read-out: Stability
Measurement type: remaining at 1 h, 1 µM (%)
Just the number in %, nothing appended.

Supply measured remaining at 1 h, 1 µM of Cc1cc(=O)n(-c2cc(Cl)ccc2F)nc1C(=O)Nc1ccc(Oc2ccnc(NC(=O)N3CC(O)C3)c2)c(F)c1 in your reply.
99.6

* * *

- System: BaF3
- Method summary: Antiproliferative activity against mouse BaF3 cells harbouring FLT3-ITD-F691L mutant assessed as inhibition of cell growth measured after 3 days by celltiter-glo luminescent cell viability assay
- Assay type: functional, cell-based
- Measurement setup: BaF3, 72 h
Measurement type: pIC50
Scale explanation: pIC50 corresponds to minus log10 of a concentration expressed in moles per litre.

Supply measured pIC50 of Cc1cc(=O)n(-c2cc(Cl)ccc2F)nc1C(=O)Nc1ccc(Oc2ccnc(NC(=O)N3CC(O)C3)c2)c(F)c1 in your reply.
5.31

* * *

- Tested on: BaF3
- Method summary: Antiproliferative activity against mouse BaF3 cells harbouring FLT3-ITD assessed as inhibition of cell growth measured after 3 days by celltiter-glo luminescent cell viability assay
- Format: functional, cell-based
- Measurement setup: BaF3, 72 h
Measurement type: pIC50
Scale explanation: pIC50 corresponds to minus log10 of a concentration expressed in moles per litre.

Illustrative cases are given below, each with its answer.
* Cc1cc(=O)n(-c2ccccc2Cl)nc1C(=O)Nc1ccc(Oc2ccnc(NC(=O)N3CC(O)C3)c2)c(F)c1 | 5.73
* Cc1cc(=O)n(-c2ccc(Cl)c(F)c2)nc1C(=O)Nc1ccc(Oc2ccnc(NC(=O)N3CC(O)C3)c2)c(F)c1 | 6.25
* Cc1cc(=O)n(-c2ccc(Cl)cc2)nc1C(=O)Nc1ccc(Oc2ccnc(NC(=O)N3CC(O)C3)c2)c(F)c1 | 6.21
* Cc1cc(=O)n(-c2cc(Cl)ccc2F)nc1C(=O)Nc1ccc(Oc2ccnc(NC(=O)N3CC(O)C3)c2)c(F)c1 | 6.72
* Cc1cc(=O)n(-c2ccc(OC(F)(F)F)cc2)nc1C(=O)Nc1ccc(Oc2ccnc(NC(=O)N3CC(O)C3)c2)c(F)c1 | 5.41
* Cc1cc(=O)n(-c2cc(Cl)ccc2F)nc1C(=O)Nc1ccc(Oc2ccnc(NC(=O)NC3CC3)c2)c(F)c1 | 5.11
* COc1ccc(-n2nc(C(=O)Nc3ccc(Oc4ccnc(NC(=O)N5CC(O)C5)c4)c(F)c3)c(C)cc2=O)cc1 | 5.95
* Cc1cc(=O)n(-c2cc(Cl)ccc2F)nc1C(=O)Nc1ccc(Oc2ccnc(NC(=O)N3CCC(N4CCN(C)CC4)CC3)c2)c(F)c1 | 6.10

Supply measured pIC50 of COC1CCN(C(=O)Nc2cc(Oc3ccc(NC(=O)c4nn(-c5cc(Cl)ccc5F)c(=O)cc4C)cc3F)ccn2)C1 (stereo unspecified) in your reply.
6.28

Supply measured pIC50 of Cc1cc(=O)n(-c2ccc(F)cc2F)nc1C(=O)Nc1ccc(Oc2ccnc(NC(=O)N3CC(O)C3)c2)c(F)c1 in your reply.
6.26

Supply measured pIC50 of Cc1cc(=O)n(-c2cc(Cl)ccc2F)nc1C(=O)Nc1ccc(Oc2ccnc(NC(=O)N3CCC(C(C)(C)O)CC3)c2)c(F)c1 in your reply.
5.78

Supply measured pIC50 of Cc1cc(-n2nc(C(=O)Nc3ccc(Oc4ccnc(NC(=O)N5CC(O)C5)c4)c(F)c3)c(C)cc2=O)ccc1F in your reply.
6.20

Supply measured pIC50 of Cc1cc(F)ccc1-n1nc(C(=O)Nc2ccc(Oc3ccnc(NC(=O)N4CC(O)C4)c3)c(F)c2)c(C)cc1=O in your reply.
6.11

Supply measured pIC50 of Cc1cc(=O)n(-c2ccccc2)nc1C(=O)Nc1ccc(Oc2ccnc(NC(=O)N3CC(O)C3)c2)c(F)c1 in your reply.
6.15

Supply measured pIC50 of Cc1cc(=O)n(-c2cc(Cl)ccc2F)nc1C(=O)Nc1ccc(Oc2ccnc(NC(=O)N3CCC(C)(O)C3)c2)c(F)c1 (stereo unspecified) in your reply.
6.21

Supply measured pIC50 of CNC(=O)c1cc(Oc2ccc(NC(=O)Nc3ccc(Cl)c(C(F)(F)F)c3)cc2)ccn1 [SORAFENIB] in your reply.
7.00
